Test system: INS1
Assay: beta cell apoptosis inhibitors, cytokine rescue, dose response, luminescence, retest (AID 449756);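 note: cell death triggered by IL-1 beta plus TNF-alpha plus IFN-gamma mixture; protective hits raise ATP signal compared with cytokine alone wells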
Format: functional, cell-based
Details: Rattus norvegicus
Activity calls are given as the source filed them.
readout.name: AC50

// field: AC50; key: "C=C(C)C(=O)O[C@H]1C/C(C)=C\C(=O)/C=C(\C)[C@H](O)[C@@H]2OC(=O)C(=C)[C@@H]21" ; value = 8.02 µM (active)

// field: AC50; key: "Cc1cc(Br)cc(/C=N/NC(=O)c2ccc3c(c2)OCO3)c1O" ; value = 1.32 µM (active)

====

Target: RNA-binding protein pos-1 (Caenorhabditis elegans, UniProt G5EF15)
Sequence (G5EF15 whole entry): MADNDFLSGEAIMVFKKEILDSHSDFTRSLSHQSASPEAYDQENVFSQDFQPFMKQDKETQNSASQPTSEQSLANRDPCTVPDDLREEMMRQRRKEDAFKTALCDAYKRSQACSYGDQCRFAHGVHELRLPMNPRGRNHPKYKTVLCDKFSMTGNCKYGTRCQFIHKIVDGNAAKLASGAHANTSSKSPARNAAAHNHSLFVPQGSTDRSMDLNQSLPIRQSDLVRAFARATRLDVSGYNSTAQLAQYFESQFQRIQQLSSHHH
Assay: inhibitors of POS-1/mex-3 RNA binding, dose response, biochemical, fluorescence polarization (AID 1964);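 note: purified POS-1 fused to maltose binding protein made in E. coli; potency of compounds blocking POS-1 binding to fluorescent RNA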
Active and inactive are the calls of the source.
Listed here: items and their measured EC50.

# count of solved cases: 5
COc1ccc(C2C(C#N)=C(N)OC3=C2C(=O)CCC3)cc1OC (stereo unspecified)
> 300 µM (not active)
Cc1ccc(Cn2c(=N)c(C(=O)NCC3CCCO3)cc3c(=O)n4ccccc4nc32)cc1 (stereo unspecified)
> 300 µM (not active)
COc1ccc(C(=O)Nc2cc(C(C)=O)c(/C=C/N(C)C)oc2=O)cc1
54.1 µM (active)
C=CCNC(=S)Nc1cc(Cl)ccc1OC
> 300 µM (not active)
CCn1cc(C(=O)NCc2ccccn2)c(=O)c2cc(S(=O)(=O)N3CCCCC3)ccc21
154 µM (active)

Now for a further compound.
// field: EC50; key: CN1CC=C2C(C#N)=C(N)C(C#N)(C#N)[C@H](c3cccc(Cl)c3)C2C1 (stereo partly specified) ; value = 12.5 µM (active)

====

Molecular target: Alkaline phosphatase, placental type (Homo sapiens, UniProt P05187)
Sequence (P05187 whole entry): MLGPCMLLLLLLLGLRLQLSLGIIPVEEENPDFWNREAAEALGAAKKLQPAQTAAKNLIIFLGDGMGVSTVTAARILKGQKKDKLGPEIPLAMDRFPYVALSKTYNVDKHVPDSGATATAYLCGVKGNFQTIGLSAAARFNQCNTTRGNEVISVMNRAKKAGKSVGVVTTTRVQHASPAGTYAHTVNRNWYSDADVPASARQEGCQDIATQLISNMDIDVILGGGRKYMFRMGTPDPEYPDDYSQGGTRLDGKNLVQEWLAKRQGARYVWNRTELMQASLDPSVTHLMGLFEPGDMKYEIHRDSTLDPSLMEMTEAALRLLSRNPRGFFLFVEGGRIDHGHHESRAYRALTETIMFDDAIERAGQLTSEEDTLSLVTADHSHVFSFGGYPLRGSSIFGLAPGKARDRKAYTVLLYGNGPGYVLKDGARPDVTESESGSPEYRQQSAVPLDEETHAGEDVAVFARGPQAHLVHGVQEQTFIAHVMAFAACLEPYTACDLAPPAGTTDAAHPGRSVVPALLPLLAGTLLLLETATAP
Test: PLAP enzyme inhibitors, confirmation, biochemical, luminescence (AID 1512)
Assay type: functional
Calls of active or inactive are those of the source.
Pick one: active, inactive

## Task I would be grateful if you could indicate the recorded call for "Sc1nc(-c2ccc(Cl)cc2Cl)n[nH]1" .
## Result inactive

## Task I would be grateful if you could indicate the recorded call for "CC1(C)CC(=O)c2c(-c3ccc(F)cc3)n[nH]c2C1" .
## Result inactive

## Task I would be grateful if you could indicate the recorded call for "O=C(NNC(=S)NC(=O)c1ccccc1[N+](=O)[O-])c1ccccc1[N+](=O)[O-]" .
## Result inactive

## Task I would be grateful if you could indicate the recorded call for Cc1ccc(C)c(NC(=S)NC(NC(=O)Cc2cccc3ccccc23)C(Cl)(Cl)Cl)c1 (centres undefined) .
## Result active

====

Listed here: items and their measured IC50.
Molecular target: Photoreceptor-specific nuclear receptor (Homo sapiens, UniProt Q9Y5X4)
Sequence (Q9Y5X4 whole entry): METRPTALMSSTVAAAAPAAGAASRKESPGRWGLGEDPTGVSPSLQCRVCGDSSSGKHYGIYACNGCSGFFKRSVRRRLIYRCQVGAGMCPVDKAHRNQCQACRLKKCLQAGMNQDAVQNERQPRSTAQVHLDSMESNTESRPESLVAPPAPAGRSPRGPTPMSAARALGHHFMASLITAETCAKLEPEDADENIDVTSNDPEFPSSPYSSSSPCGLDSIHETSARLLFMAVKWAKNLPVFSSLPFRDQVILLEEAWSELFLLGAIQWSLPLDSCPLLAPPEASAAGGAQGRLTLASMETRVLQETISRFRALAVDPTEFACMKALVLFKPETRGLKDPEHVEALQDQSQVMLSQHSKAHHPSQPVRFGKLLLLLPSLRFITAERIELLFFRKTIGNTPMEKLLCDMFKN
Assay: NR2E3 inverse agonists, dose response, biochemical, TR-FRET (AID 463256)
Assay type: functional
The source made the active and inactive calls.

# count of solved cases: 4
COc1cc(NC(=O)CSc2nc(C3CC3)nc3ccccc23)cc(OC)c1
5.35 µM (active)
O=C(COc1ccc(Br)cc1)N1CCN(c2ncccn2)CC1
10.1 µM (not active)
N#Cc1ccc(CSc2nnc(NC(=O)c3ccc4ncsc4c3)s2)cc1
3.91 µM (active)
COc1ccc(-n2nc3c(N4CCC(C(=O)NCc5ccccc5C)CC4)nnc(C)c3c2C)cc1
2.01 µM (active)

Now for a further compound.
// field: IC50; key: "Cc1c(Br)ccc(NC(=O)Cn2nc(-c3cccs3)ccc2=O)c1C" ; value = 7.42 µM (active)

====

Listed here: items and their measured IC50.
Biological target: Nonstructural protein 1 (Influenza A virus)
Sequence (Q194T2 whole entry): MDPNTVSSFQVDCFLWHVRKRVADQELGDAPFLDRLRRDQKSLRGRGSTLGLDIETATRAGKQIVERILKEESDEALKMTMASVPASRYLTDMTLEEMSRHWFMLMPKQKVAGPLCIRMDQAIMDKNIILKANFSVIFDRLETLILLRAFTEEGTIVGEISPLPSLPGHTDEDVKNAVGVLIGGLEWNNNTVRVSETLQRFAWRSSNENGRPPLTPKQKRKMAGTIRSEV
Type: functional, Influenza A virus (A/California/07/2009(H1N1))
The source made the active and inactive calls.

# count of solved cases: 3
CC(=O)N1CCN(c2ccc(NCc3ccc(-c4ccc(Br)cc4)o3)cc2)CC1
41.1 µM (active)
O=C1C(NS(=O)(=O)c2ccccc2)=C(N2CCN(c3ccc(F)cc3)CC2)C(=O)c2ccccc21
18.1 µM (active)
Cc1ccc(Nc2c([N+](=O)[O-])ccc3c2=NC2(CCCCC2)N=3)cc1
17.4 µM (active)

// field: IC50; key: "COc1ccc(Cc2nnc(N/N=C/c3ccc(O)cc3)nc2O)cc1OC" ; value = 1.19 µM (active)

// field: IC50; key: "CN(C)c1ccc(/C=C/C=C/c2sc3ccccc3[n+]2C)cc1.[O-][Cl+3]([O-])([O-])[O-]" ; value = 15 µM (active)

====

Below are molecules with their AC50 as measured on Cytochrome P450 2C9 (Homo sapiens).
Sequence (P11712 whole entry): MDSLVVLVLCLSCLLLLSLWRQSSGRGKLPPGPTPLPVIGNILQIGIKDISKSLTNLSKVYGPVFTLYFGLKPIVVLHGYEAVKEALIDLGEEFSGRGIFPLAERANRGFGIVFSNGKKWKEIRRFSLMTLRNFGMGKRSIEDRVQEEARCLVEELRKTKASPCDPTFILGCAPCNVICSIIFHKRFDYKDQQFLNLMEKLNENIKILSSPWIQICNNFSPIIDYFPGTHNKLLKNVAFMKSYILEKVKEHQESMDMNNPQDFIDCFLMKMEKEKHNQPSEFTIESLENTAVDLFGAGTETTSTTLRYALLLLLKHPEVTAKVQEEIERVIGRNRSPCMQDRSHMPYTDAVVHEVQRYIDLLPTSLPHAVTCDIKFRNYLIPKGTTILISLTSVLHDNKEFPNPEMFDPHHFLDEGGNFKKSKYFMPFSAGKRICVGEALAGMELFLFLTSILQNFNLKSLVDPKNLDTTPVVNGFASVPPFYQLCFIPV

# count of solved cases: 3
C/C(NCc1ccco1)=C1\C(=O)NC(=O)N(c2ccccc2)C1=O
39.8 µM (inconclusive)
O=C(c1ccncc1)N1CCC2(CC1)CCN(C(c1ccccc1)c1ccccc1)CC2
12.6 µM (inconclusive)
Cc1ccc(NCCC(=O)c2ccc(Cl)cc2)cc1
3.98 µM (inconclusive)

// field: AC50; key: CC(C)c1ccc(N(C(=O)C(F)(F)F)C(C(=O)NC2CCCCC2)c2ccncc2)cc1 (configuration not stated) ; value = 2.24 µM (inconclusive)

// field: AC50; key: "Cn1c(=O)c(-c2cc(F)cc(F)c2)nc2cnc(N3CCNCC3)nc21" ; value = 25.1 µM (inconclusive)

// field: AC50; key: "C=CCN1CCc2cccc3c2[C@@H]1Cc1ccc(O)c(O)c1-3" ; value = 31.6 µM (inconclusive)

// field: AC50; key: "O=c1cnc2cncnc2n1Cc1ccccc1" ; value = 31.6 µM (inconclusive)

====

System: Streptococcus sp. 'group A'
Experiment: growth inhibition of control SK(-) GAS strain, dose response, counter-screen for streptokinase expression inhibitor project, luminescence, kanamycin, BacTiterGlo, confirmation (AID 1900)
Type: functional, organism-based
Calls of active or inactive are those of the source.
readout.name: EC50

// field: EC50; key: "CCCCc1nc(NCc2ccccc2)c(C#N)c2c1CCCC2" ; value = 9.14 µM (active)

// field: EC50; key: "Cc1ccccc1Oc1nc(-c2ccccn2)nc2ccccc12" ; value = 12.4 µM (active)

// field: EC50; key: "Cc1nc(N2CCC(C)CC2)c2c(C)c(C(=O)Nc3ccccc3C(F)(F)F)sc2n1" ; value = 3.69 µM (active)

// field: EC50; key: "O=C(Nc1cccnc1)Nc1cc(Cl)cc(Cl)c1" ; value = 7.83 µM (active)

// field: EC50; key: CC(C)CC(=O)NC(N=C(S)Nc1sc2c(c1C#N)CCCC2)C(Cl)(Cl)Cl (centres undefined) ; value = 3.06 µM (active)

// field: EC50; key: "CC(C)COC(=O)c1cccc2c1-c1ccccc1/C2=N\O" ; value = 4.74 µM (active)

// field: EC50; key: CS(=O)(=O)Nc1ccc(C2=NN(C(=O)C3CCCCC3)C(c3cccs3)C2)cc1 (centres undefined) ; value = 4.11 µM (active)

// field: EC50; key: CCCC(=O)NC(c1ccc(C(C)C)cc1)c1ccc2cccnc2c1O (centres undefined) ; value = 2.55 µM (active)

// field: EC50; key: CCCCC(=O)O[C@H]1CC[C@H]2[C@@H]3CCc4cc(O)ccc4[C@H]3CC[C@]12C [ESTRADIOL VALERATE] ; value = 2.3 µM (active)

====

Listed here: items and their measured IC50.
Target: Large T antigen (Simian virus 40);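 note: Confirmatory-stage PubChem screen for compounds that inhibit SV40 T antigen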
Sequence (P03070 whole entry): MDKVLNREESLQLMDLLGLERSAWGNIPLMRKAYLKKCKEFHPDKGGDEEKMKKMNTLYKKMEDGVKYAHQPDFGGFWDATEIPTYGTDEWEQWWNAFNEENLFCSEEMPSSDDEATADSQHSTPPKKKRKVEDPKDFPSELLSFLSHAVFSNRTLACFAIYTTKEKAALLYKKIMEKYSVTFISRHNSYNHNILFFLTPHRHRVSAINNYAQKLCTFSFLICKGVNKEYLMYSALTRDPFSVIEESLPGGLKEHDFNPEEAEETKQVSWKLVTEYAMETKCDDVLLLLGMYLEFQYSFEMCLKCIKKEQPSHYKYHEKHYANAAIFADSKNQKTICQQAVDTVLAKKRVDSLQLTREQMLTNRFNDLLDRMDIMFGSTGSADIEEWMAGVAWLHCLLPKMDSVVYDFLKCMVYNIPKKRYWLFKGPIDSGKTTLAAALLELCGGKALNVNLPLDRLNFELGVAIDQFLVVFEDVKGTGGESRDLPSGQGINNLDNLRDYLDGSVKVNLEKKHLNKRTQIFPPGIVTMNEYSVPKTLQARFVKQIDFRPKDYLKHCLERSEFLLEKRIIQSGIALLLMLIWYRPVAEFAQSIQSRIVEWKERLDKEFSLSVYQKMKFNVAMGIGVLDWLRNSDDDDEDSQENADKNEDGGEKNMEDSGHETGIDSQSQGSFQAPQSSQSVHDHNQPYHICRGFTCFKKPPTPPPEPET
Type: functional, Betapolyomavirus macacae
Calls of active or inactive are those of the source.

CC1(C)[N+]([O-])=c2ccc([N+](=O)[O-])cc2=[N+]1[O-].NO
6.55 µM (active)

// field: IC50; key: "CC(=O)N(c1ccc2oc(=O)sc2c1)S(=O)(=O)c1cccs1" ; value = 40.1 µM (active)

// field: IC50; key: "c1ccc(-c2csc(NNC3=NCCCCC3)n2)cc1" ; value = 61.1 µM (active)

// field: IC50; key: "COc1cc(/C=N/NC(=O)c2ccc3c(c2)OCCO3)cc(Cl)c1O" ; value = 22.7 µM (active)

// field: IC50; key: COc1ccc(NC2CCCN(C(=O)c3ccc(OC)cc3OC)C2)cc1 (stereo not given) ; value = 82.4 µM (active)

====

Listed here: items and their measured IC50.
Target: G-protein coupled receptor 55 (Homo sapiens)
Sequence (Q9Y2T6 whole entry): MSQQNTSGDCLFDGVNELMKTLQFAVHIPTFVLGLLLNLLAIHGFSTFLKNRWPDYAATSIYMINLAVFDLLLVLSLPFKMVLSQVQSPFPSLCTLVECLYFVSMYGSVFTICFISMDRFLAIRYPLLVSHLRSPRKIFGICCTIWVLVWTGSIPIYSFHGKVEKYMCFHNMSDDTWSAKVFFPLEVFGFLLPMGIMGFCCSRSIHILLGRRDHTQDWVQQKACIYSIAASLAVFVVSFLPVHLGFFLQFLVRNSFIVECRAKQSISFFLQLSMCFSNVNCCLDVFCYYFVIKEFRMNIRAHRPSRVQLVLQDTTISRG
Assay: GPR55 antagonists blocking LPI-driven arrestin recruitment, primary screen, imaging, U2OS, beta-arrestin-GFP, LPI agonist (AID 2013);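 note: antagonist potency measured as reduced agonist-driven arrestin aggregation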
Type: functional
Activity calls are given as the source filed them.

# count of solved cases: 3
O=C(O)c1cc(NS(=O)(=O)c2ccc(NC3CCCCC3)c([N+](=O)[O-])c2)cc(C(=O)O)c1
5.62 µM (active)
COc1ccc(-c2c(-c3ccc(OCC(=O)NN)cc3O)n[nH]c2C(F)(F)F)cc1
2.75 µM (active)
COc1ccc(C23CC4CC(CC(C4)C2)C3)cc1C(=O)NCCN(C)C
1.37 µM (active)

Now for a further compound.
// field: IC50; key: "COc1ccc(/C=N/NC(=O)c2cc(C34CC5CC(CC(C5)C3)C4)[nH]n2)cc1OC" ; value = 2.74 µM (active)
